Test system: Plasma
Assay: Fraction unbound in rat plasma by equilibrium dialysis method
Type: ADME, cell-free
Experimental readout: Fu

[
  {
    "Compound smiles": "Clc1ccc(CN2CCO[C@H](COc3ccccc3)C2)cc1Cl",
    "Experimental readout": "Fu",
    "Endpoint value": 0.006
  },
  {
    "Compound smiles": "Clc1ccc(CN2CCO[C@H](COc3ccccc3)C2)cc1",
    "Experimental readout": "Fu",
    "Endpoint value": 0.007
  },
  {
    "Compound smiles": "COc1ccc(CN2CCO[C@H](COc3cccc(F)c3)C2)cc1Cl",
    "Experimental readout": "Fu",
    "Endpoint value": 0.013
  },
  {
    "Compound smiles": "Fc1ccc2c(CN3CCO[C@H](COc4cccc(F)n4)C3)c[nH]c2c1",
    "Experimental readout": "Fu",
    "Endpoint value": 0.015
  },
  {
    "Compound smiles": "Cc1ccc(CN2CCO[C@H](CSc3ccccc3)C2)cc1C",
    "Experimental readout": "Fu",
    "Endpoint value": 0.004
  },
  {
    "Compound smiles": "COc1ccc(CN2CCO[C@H](COc3ccccc3)C2)cc1Cl",
    "Experimental readout": "Fu",
    "Endpoint value": 0.019
  }
]

* * *

# inhibition values compiled below
Biological target: D(4) dopamine receptor (Homo sapiens)
Test: Displacement of [3H]-Spiperone from human recombinant dopamine D4 receptor expressed in CHOK1 cells at 10 uM relative to control
Type: cell-based
Settings: CHO-K1
Experimental readout: inhibition

[
  {
    "Compound smiles": "COc1cc(CN2CCO[C@H](COc3ccccn3)C2)ccc1Cl",
    "Endpoint value": "34%"
  },
  {
    "Compound smiles": "COc1ccc(CN2CCO[C@H](COc3cncnc3)C2)cc1",
    "Endpoint value": "-4%"
  },
  {
    "Compound smiles": "COc1cc(CN2CCO[C@H](COc3cccc(F)n3)C2)ccc1Cl",
    "Endpoint value": "-3%"
  },
  {
    "Compound smiles": "COc1ccc(CN2CCO[C@H](COc3ccccn3)C2)cc1",
    "Endpoint value": "57%"
  },
  {
    "Compound smiles": "COc1ccc(CN2CCO[C@@H](COc3ccccc3)C2)cc1Cl",
    "Endpoint value": "35%"
  },
  {
    "Compound smiles": "COc1ccc(CN2CCO[C@H](COc3ccccn3)C2)cc1Cl",
    "Endpoint value": "37%"
  },
  {
    "Compound smiles": "Clc1ccc(CN2CCO[C@H](COc3ncccn3)C2)cc1",
    "Endpoint value": "31%"
  },
  {
    "Compound smiles": "Clc1ccc(CN2CCO[C@H](COc3cncnc3)C2)cc1",
    "Endpoint value": "76%"
  },
  {
    "Compound smiles": "COc1ccc(CN2CCO[C@H](COc3ncccn3)C2)cc1",
    "Endpoint value": "8%"
  }
]

* * *

# IC50 values compiled below
Target: D(4) dopamine receptor (Homo sapiens, UniProt P21917)
Sequence (P21917 whole entry): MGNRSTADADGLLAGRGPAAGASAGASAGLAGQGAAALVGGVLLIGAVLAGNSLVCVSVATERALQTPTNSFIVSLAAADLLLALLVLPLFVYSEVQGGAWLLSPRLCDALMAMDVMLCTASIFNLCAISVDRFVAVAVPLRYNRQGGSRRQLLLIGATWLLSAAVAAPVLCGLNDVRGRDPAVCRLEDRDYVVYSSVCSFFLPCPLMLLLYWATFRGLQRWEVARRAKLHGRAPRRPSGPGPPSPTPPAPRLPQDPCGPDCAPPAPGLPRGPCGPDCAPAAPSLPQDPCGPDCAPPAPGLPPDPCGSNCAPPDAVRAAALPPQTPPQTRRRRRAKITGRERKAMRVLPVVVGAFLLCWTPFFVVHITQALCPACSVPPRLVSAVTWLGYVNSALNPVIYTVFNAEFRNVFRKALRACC
Test: Displacement of [3H]-Spiperone from human recombinant dopamine D4 receptor expressed in CHOK1 cells
Experimental readout: IC50 (nM)

[
  {
    "Compound smiles": "Cc1ccc(CN2CCO[C@H](CSc3ccccc3)C2)cc1C",
    "Subject of test": "D(4) dopamine receptor (Homo sapiens, UniProt P21917)",
    "Experimental readout": "IC50",
    "Endpoint value": 27
  },
  {
    "Compound smiles": "Fc1ccc2c(CN3CCO[C@H](COc4cccc(F)n4)C3)c[nH]c2c1",
    "Subject of test": "D(4) dopamine receptor (Homo sapiens, UniProt P21917)",
    "Experimental readout": "IC50",
    "Endpoint value": 76
  },
  {
    "Compound smiles": "Fc1cccc(OC[C@@H]2CN(Cc3ccc(Cl)cc3)CCO2)n1",
    "Subject of test": "D(4) dopamine receptor (Homo sapiens, UniProt P21917)",
    "Experimental readout": "IC50",
    "Endpoint value": 460
  },
  {
    "Compound smiles": "FC1(F)Oc2ccc(CN3CCO[C@H](COc4ccccc4)C3)cc2O1",
    "Subject of test": "D(4) dopamine receptor (Homo sapiens, UniProt P21917)",
    "Experimental readout": "IC50",
    "Endpoint value": 260
  },
  {
    "Compound smiles": "COc1cc(CN2CCO[C@H](COc3ccccc3)C2)ccc1F",
    "Subject of test": "D(4) dopamine receptor (Homo sapiens, UniProt P21917)",
    "Experimental readout": "IC50",
    "Endpoint value": 42
  },
  {
    "Compound smiles": "Cn1ncc2cc(CN3CCO[C@H](COc4ccccc4)C3)ccc21",
    "Subject of test": "D(4) dopamine receptor (Homo sapiens, UniProt P21917)",
    "Experimental readout": "IC50",
    "Endpoint value": 170
  },
  {
    "Compound smiles": "c1ccc(OC[C@@H]2CN(Cc3ncn4ccccc34)CCO2)cc1",
    "Subject of test": "D(4) dopamine receptor (Homo sapiens, UniProt P21917)",
    "Experimental readout": "IC50",
    "Endpoint value": 130
  },
  {
    "Compound smiles": "c1ccc(OC[C@@H]2CN(Cc3cccc4cc[nH]c34)CCO2)cc1",
    "Subject of test": "D(4) dopamine receptor (Homo sapiens, UniProt P21917)",
    "Experimental readout": "IC50",
    "Endpoint value": 130
  },
  {
    "Compound smiles": "COc1ccc(CN2CCO[C@H](COc3cccc(C#N)c3)C2)cc1Cl",
    "Subject of test": "D(4) dopamine receptor (Homo sapiens, UniProt P21917)",
    "Experimental readout": "IC50",
    "Endpoint value": 130
  },
  {
    "Compound smiles": "COc1ccc(CN2CCO[C@H](COc3ccccc3)C2)cc1Cl",
    "Subject of test": "D(4) dopamine receptor (Homo sapiens, UniProt P21917)",
    "Experimental readout": "IC50",
    "Endpoint value": 38
  },
  {
    "Compound smiles": "COc1ccc(CN2CCO[C@H](COc3ccccc3)C2)cc1F",
    "Subject of test": "D(4) dopamine receptor (Homo sapiens, UniProt P21917)",
    "Experimental readout": "IC50",
    "Endpoint value": 56
  },
  {
    "Compound smiles": "Fc1ccc2c(CN3CCO[C@H](COc4cccc(Cl)n4)C3)c[nH]c2c1",
    "Subject of test": "D(4) dopamine receptor (Homo sapiens, UniProt P21917)",
    "Experimental readout": "IC50",
    "Endpoint value": 11.9
  },
  {
    "Compound smiles": "COc1ccc(OC[C@@H]2CN(Cc3ccc(Cl)cc3)CCO2)cc1",
    "Subject of test": "D(4) dopamine receptor (Homo sapiens, UniProt P21917)",
    "Experimental readout": "IC50",
    "Endpoint value": 150
  },
  {
    "Compound smiles": "CSc1ccc(CN2CCO[C@H](COc3ccccc3)C2)cc1",
    "Subject of test": "D(4) dopamine receptor (Homo sapiens, UniProt P21917)",
    "Experimental readout": "IC50",
    "Endpoint value": 58
  },
  {
    "Compound smiles": "Fc1ccc2c(CN3CCO[C@H](COc4ccccc4)C3)c[nH]c2c1",
    "Subject of test": "D(4) dopamine receptor (Homo sapiens, UniProt P21917)",
    "Experimental readout": "IC50",
    "Endpoint value": 18.9
  },
  {
    "Compound smiles": "Fc1cccc2[nH]cc(CN3CCO[C@H](COc4ccccc4)C3)c12",
    "Subject of test": "D(4) dopamine receptor (Homo sapiens, UniProt P21917)",
    "Experimental readout": "IC50",
    "Endpoint value": 3830
  },
  {
    "Compound smiles": "Fc1ccc(CN2CCO[C@H](COc3ccccc3)C2)cc1Cl",
    "Subject of test": "D(4) dopamine receptor (Homo sapiens, UniProt P21917)",
    "Experimental readout": "IC50",
    "Endpoint value": 62
  },
  {
    "Compound smiles": "COc1ccc(CN2CCO[C@H](COc3cccnc3)C2)cc1",
    "Subject of test": "D(4) dopamine receptor (Homo sapiens, UniProt P21917)",
    "Experimental readout": "IC50",
    "Endpoint value": 210
  },
  {
    "Compound smiles": "COc1cccc(OC[C@@H]2CN(Cc3ccc(Cl)cc3)CCO2)c1",
    "Subject of test": "D(4) dopamine receptor (Homo sapiens, UniProt P21917)",
    "Experimental readout": "IC50",
    "Endpoint value": 130
  },
  {
    "Compound smiles": "c1ccc(OC[C@@H]2CN(Cc3n[nH]c4ccccc34)CCO2)cc1",
    "Subject of test": "D(4) dopamine receptor (Homo sapiens, UniProt P21917)",
    "Experimental readout": "IC50",
    "Endpoint value": 65
  },
  {
    "Compound smiles": "COc1ccc(CN2CCO[C@H](COc3cccc(F)c3)C2)cc1Cl",
    "Subject of test": "D(4) dopamine receptor (Homo sapiens, UniProt P21917)",
    "Experimental readout": "IC50",
    "Endpoint value": 39
  },
  {
    "Compound smiles": "COc1ccc2c(CN3CCO[C@H](COc4ccccc4)C3)c[nH]c2c1",
    "Subject of test": "D(4) dopamine receptor (Homo sapiens, UniProt P21917)",
    "Experimental readout": "IC50",
    "Endpoint value": 19.5
  },
  {
    "Compound smiles": "COc1ccc(CN2CCO[C@H](COc3ccc(F)cc3)C2)cc1",
    "Subject of test": "D(4) dopamine receptor (Homo sapiens, UniProt P21917)",
    "Experimental readout": "IC50",
    "Endpoint value": 47
  }
]
